Measured % cell viability of individual entries
Test system: HEPG2 (human liver) cell line
EXPERIMENTAL DETAILS: MTT anticancer assay, HepG2
Format: cell-based
STATED CONDITIONS: HepG2, 12.5 µg/ml
QUANTITY: % cell viability (%)

> print(dat)
                                   compound  recorded.measurement
1  NS(=O)(=O)c1ccc(-n2nc(C(=O)NN=Cc3ccc(Cl)cc3O)cc2-c2ccc(Br)cc2)cc1 [Compound T9]                 84.90
2  COc1ccc(-c2cc(C(=O)NN=Cc3ccc(Oc4ccccc4)cc3)nn2-c2ccc(S(N)(=O)=O)cc2)cc1 [Compound T2]                 77.90
3  Cc1cc(C=NNC(=O)c2cc(-c3ccc(Br)cc3)n(-c3ccc(S(N)(=O)=O)cc3)n2)cc(C)c1OCc1ccccc1 [Compound T5]                 73.66
4  NS(=O)(=O)c1ccc(-n2nc(C(=O)NN=Cc3cccc(Oc4ccccc4)c3)cc2-c2ccc(Cl)cc2)cc1 [Compound T3]                 84.40

###

Test system: A549 (human lung adenocarcinoma) cell line
EXPERIMENTAL DETAILS: MTT anticancer assay, A549
Assay type: cell-based
STATED CONDITIONS: A549, 100 µg/ml
QUANTITY: % cell viability (%)

> print(dat)
                           molecular.string  unit  recorded.measurement
1  NS(=O)(=O)c1ccc(-n2nc(C(=O)NN=Cc3ccc(Cl)cc3O)cc2-c2ccc(Br)cc2)cc1     %                 54.57
2  COc1ccc(-c2cc(C(=O)NN=Cc3ccc(Oc4ccccc4)cc3)nn2-c2ccc(S(N)(=O)=O)cc2)cc1     %                 18.25
3  NS(=O)(=O)c1ccc(-n2nc(C(=O)NN=Cc3cccc(Oc4ccccc4)c3)cc2-c2ccc(Cl)cc2)cc1     %                 24.18
4  Cc1cc(C=NNC(=O)c2cc(-c3ccc(Br)cc3)n(-c3ccc(S(N)(=O)=O)cc3)n2)cc(C)c1OCc1ccccc1     %                 30.52

###

Test system: A549 (human lung adenocarcinoma) cell line
EXPERIMENTAL DETAILS: MTT anticancer assay, A549
Format: cell-based
STATED CONDITIONS: A549, 6.25 µg/ml
Measured % cell viability of individual entries
QUANTITY: % cell viability (%)

> print(dat)
                           molecular.string          quantity  unit  recorded.measurement
1  COc1ccc(-c2cc(C(=O)NN=Cc3ccc(Oc4ccccc4)cc3)nn2-c2ccc(S(N)(=O)=O)cc2)cc1  % cell viability     %                 95.63
2  NS(=O)(=O)c1ccc(-n2nc(C(=O)NN=Cc3cccc(Oc4ccccc4)c3)cc2-c2ccc(Cl)cc2)cc1  % cell viability     %                 95.77
3  NS(=O)(=O)c1ccc(-n2nc(C(=O)NN=Cc3ccc(Cl)cc3O)cc2-c2ccc(Br)cc2)cc1  % cell viability     %                 91.72
4  Cc1cc(C=NNC(=O)c2cc(-c3ccc(Br)cc3)n(-c3ccc(S(N)(=O)=O)cc3)n2)cc(C)c1OCc1ccccc1  % cell viability     %                 97.15
